# Test system: K562
# procedure.text: NCI tumour cell line growth inhibition, 48 h
Active and inactive are the calls of the source. No stated cut-off is given here; in the data, active = GI50 up to about 1.1 µM and inactive = higher. Where a SMILES comes first, the peptide text is derived from it. The star is where a group is joined. Fmoc = O=C(OCC1c2ccccc2-c2ccccc21)*; Boc = CC(C)(C)OC(=O)*
Outcomes: YES = active, NO = inactive

[[record]]
molecule = "Cc1cc(C)c(C[C@H]2COC(=O)[C@]2(O)Cc2c(C)cc(C)cc2C)c(C)c1"
class_name = "NO"

[[record]]
molecule = "COc1ccc(/C=N/n2cnc3c(c2=O)SC(=C(C#N)C#N)N3c2ccccc2)cc1"
class_name = "NO"

[[record]]
molecule = "C/C(=C(/C)c1ccc(O)cc1)c1ccc(O)cc1 [DIMETHYLSTILBESTROL]"
class_name = "NO"

[[record]]
molecule = "COc1ccc(CC[N+]2(C)COc3cc4oc(=O)cc(C)c4cc3C2)cc1OC (stereo not drawn)"
class_name = "NO"

[[record]]
molecule = "O=C(Nc1ccc(Sc2ccc(/N=N/c3c(O)c(S(=O)(=O)O)cc4cc(S(=O)(=O)O)ccc34)cc2)cc1)c1ccc(/N=N/c2c(O)ccc3c(S(=O)(=O)O)cc(S(=O)(=O)O)cc23)cc1"
class_name = "NO"

[[record]]
molecule = "COc1cc(NCc2ccc3nc(N)nc(N)c3c2C)cc(OC)c1OC"
class_name = "YES"

[[record]]
molecule = "C[C@]12CCC(=O)C=C1CC[C@@H]1[C@@H]2CC[C@]2(C)C(=O)/C(=C/c3ccncc3)C[C@@H]12"
class_name = "NO"

[[record]]
molecule = "O=C1C(Cl)=C(Cl)C(=O)C2=C1C1c3ccccc3C2c2ccccc21"
class_name = "NO"

[[record]]
molecule = "N#CC1(C#N)C(c2ccccc2)C=CC(c2ccc([N+](=O)[O-])cc2)C1(C#N)C#N (stereo not drawn)"
class_name = "NO"

[[record]]
molecule = "O=c1/c(=C/c2ccc3c(c2)OCO3)sc2nnc(-c3ccco3)n12"
class_name = "NO"

[[record]]
molecule = "COC(=O)[C@]12CSC[C@H]1C[C@H](c1cccc3ccccc13)N2"
class_name = "NO"

[[record]]
molecule = "CCOC(=O)C1(Cc2ccc3c(c2)CCC3)Cc2cc3c(cc2C1=O)CCC3 (stereo not drawn)"
class_name = "NO"

[[record]]
molecule = "Brc1ccc2c(-c3csc(-c4c[nH]c5ccc(Br)cc45)n3)c[nH]c2c1"
class_name = "NO"

[[record]]
molecule = "O=C(O)c1c2c(c(O)c3c1CN(C1CCCCC1)CO3)OCN(C1CCCCC1)C2"
class_name = "NO"

[[record]]
molecule = "COc1ccc(CCn2ccc(=O)c(O)c2C)cc1OC"
class_name = "NO"

[[record]]
molecule = "COC(=O)C1CCC(C)CC1=O (stereo not drawn)"
class_name = "NO"

[[record]]
molecule = "CC(C)(C)OC(=O)NCCCCC(NC(=O)C(Cc1c[nH]c2ccccc12)NC(=O)OCC1c2ccccc2-c2ccccc21)C(=O)O (stereo not drawn) (Fmoc-Trp-Lys(Boc)-OH; configuration not given here)"
class_name = "NO"

[[record]]
molecule = "Cc1cc(N(CCOS(C)(=O)=O)CCOS(C)(=O)=O)ccc1/C=N/c1ccc(-c2csc(-c3ccccc3)n2)c(Cl)c1"
class_name = "NO"


###

This section presents molecules with their documented GI50 values.
# Tested on: SF-539
# procedure.text: NCI tumour cell line growth inhibition, 48 h
Calls of active or inactive are those of the source. No stated cut-off is given here; in the data, active = GI50 up to about 1.1 µM and inactive = higher.
measured.attribute: GI50

[[record]]
chemical_structure = "Cc1nc(N)c(N2CCN([N+](=O)[O-])CC2)c(O)n1"
reported_result = "> 100 µM (inactive)"

[[record]]
chemical_structure = "Nc1ccc(S(=O)(=O)Nc2nnc(S(N)(=O)=O)s2)cc1"
reported_result = "> 100 µM (inactive)"

[[record]]
chemical_structure = "Cc1ccc(Cc2c(=O)[nH]nc3ccccc23)cc1"
reported_result = "> 100 µM (inactive)"


###

# Test system: UACC-257
# procedure.text: NCI tumour cell line growth inhibition, 48 h
Active and inactive are the calls of the source. No stated cut-off is given here; in the data, active = GI50 up to about 1.1 µM and inactive = higher.
measured.attribute: GI50

[[record]]
molecule = "C[C@@H](CCO)OC1OC(COC(=O)C(C)(C)C)C(OC(=O)C(C)(C)C)C(OC(=O)C(C)(C)C)C1OC(=O)C(C)(C)C (stereo not given in full)"
measured_attribute = "GI50"
reported_result = "25.5 µM (inactive)"

[[record]]
molecule = "CC(C)(CO)NC(=O)Nc1c(C(F)(F)F)cc(-c2ccccc2)[nH]c1=O"
measured_attribute = "GI50"
reported_result = "> 100 µM (inactive)"

[[record]]
molecule = "CCCCc1ccc(-n2c(C)c(COC(=O)NC)c(COC(=O)NC)c2C)cc1"
measured_attribute = "GI50"
reported_result = "10.6 µM (inactive)"

[[record]]
molecule = "COc1ccc(C(=C[N+](=O)[O-])c2ccc(OC)cc2)cc1"
measured_attribute = "GI50"
reported_result = "8.59 µM (inactive)"

[[record]]
molecule = "CCOC(=O)/C(=C/c1ccccc1)N(CC)CC"
measured_attribute = "GI50"
reported_result = "> 100 µM (inactive)"


###

# System: UACC-257
# procedure.text: NCI tumour cell line growth inhibition, 48 h
The source made the active and inactive calls. Cut-off read from the data, not from the text of the source: active = GI50 up to about 1.1 µM and inactive = higher.
Outcomes: active, inactive

[[record]]
molecule = "Cc1occc1C(=S)Nc1ccc(Cl)c(C(=O)OCC(C)C)c1"
tgt = "UACC-257"
class_name = "inactive"

[[record]]
molecule = "CC1(C)CC(=O)C2=C(C1)OC1(CC2c2ccc(Cl)cc2)CC(c2ccc(Cl)cc2)C2=C(CC(C)(C)CC2=O)O1 (configuration not stated)"
tgt = "UACC-257"
class_name = "inactive"

[[record]]
molecule = "N=C(N)/N=C(/C=C/c1ccccc1)CC1OC(=O)c2ccccc21 (configuration not stated)"
tgt = "UACC-257"
class_name = "inactive"

[[record]]
molecule = "COc1ccc(/C=C\\c2cc(OC)c(OC)c(OC)c2)cc1OC(=O)NCCN(C)C"
tgt = "UACC-257"
class_name = "active"

[[record]]
molecule = "COC(=O)C1Cc2c([nH]c3ccccc23)-c2[nH]c3ccccc3c2CC(NC(C)=O)C(=O)NCC(=O)N1 (configuration not stated)"
tgt = "UACC-257"
class_name = "inactive"

[[record]]
molecule = "C=C1CC(COc2ccc3ccc(=O)oc3c2)(c2ccccc2)OC1=O (configuration not stated)"
tgt = "UACC-257"
class_name = "inactive"

[[record]]
molecule = "CS(=O)(=O)Nc1ccc2c(c1)N(S(C)(=O)=O)CC2CCl (configuration not stated)"
tgt = "UACC-257"
class_name = "inactive"

[[record]]
molecule = "O=C1C(Cl)N(c2ccc(Cl)cc2)C1c1c[nH]c2ccccc12 (configuration not stated)"
tgt = "UACC-257"
class_name = "inactive"

[[record]]
molecule = "C/C(CN1C(=O)c2ccccc2C1=O)=N\\NS(=O)(=O)c1ccccc1"
tgt = "UACC-257"
class_name = "inactive"

[[record]]
molecule = "COC(O)C12OC3CO[Si](C(C)C)(C(C)C)O[Si](C(C)C)(C(C)C)OC3C1Oc1nc(=O)ccn12 (configuration not stated)"
tgt = "UACC-257"
class_name = "inactive"

[[record]]
molecule = "CNNC1=NS(=O)(=O)c2cc(C)c(Cl)cc2S1"
tgt = "UACC-257"
class_name = "inactive"

[[record]]
molecule = "O=c1oc2ccccc2c(-c2ccc(O)cc2)c1Oc1ccc(Cl)cc1"
tgt = "UACC-257"
class_name = "inactive"


###

# Test system: HOP-62
# procedure.text: NCI tumour cell line growth inhibition, 48 h
The source made the active and inactive calls. Cut-off read from the data, not from the text of the source: active = GI50 up to about 1.1 µM and inactive = higher. *1 amine or outer side, *2 acyl side, *3 side chain or, on linkers, in order; H or OH if unused. Where a SMILES comes first, the peptide text is derived from it. Bridges are numbered along the chain shown (N, C = ends). [ ]: non-standard residue; d: D form. The star is where a group is joined. X36 = O=C(C(CCCCNO[*:3])N[*:1])[*:2]; Fmoc = O=C(OCC1c2ccccc2-c2ccccc21)*
Outcome codes: y for active, n for inactive

[[record]]
compound = "O=C(/C=C\\c1cccc2ccccc12)c1ccc(Br)cc1"
tgt = "HOP-62"
class_name = "n"

[[record]]
compound = "O=C(/C=C/c1ccc(O)cc1)c1cc(-c2cc(CCC(=O)c3ccc(O)cc3O)ccc2O)c(O)cc1O"
tgt = "HOP-62"
class_name = "n"

[[record]]
compound = "COc1ncnc2c(Cl)c(C(O)c3ccccc3)c(Cl)cc12 (configuration not stated)"
tgt = "HOP-62"
class_name = "n"

[[record]]
compound = "COc1cc2c(cc1OC)C1(c3ccccc3)ON=C(c3ccccc3)N1CS2 (configuration not stated)"
tgt = "HOP-62"
class_name = "n"

[[record]]
compound = "Brc1ccc(-c2nnc(-c3nn(-c4ccccc4)c4nc5ccccc5nc34)o2)cc1"
tgt = "HOP-62"
class_name = "n"

[[record]]
compound = "O=C1C(Cl)=C(Cl)C(=O)C2=C1C1c3ccccc3C2c2ccccc21"
tgt = "HOP-62"
class_name = "n"

[[record]]
compound = "CCOc1ccc(NCC2CC/C(=C\\c3ccc(Cl)cc3)C2=O)cc1 (configuration not stated)"
tgt = "HOP-62"
class_name = "n"

[[record]]
compound = "NC(=O)CNC(=O)C1CCCN1C(=O)C1CCCCNOC(=O)CCC(NC(=O)OCC2c3ccccc3-c3ccccc32)C(=O)NC(Cc2c[nH]c3ccccc23)C(=O)N1 (configuration not stated) (Fmoc-EW[X36]PG-NH2; ester 1-3; configuration not given here)"
tgt = "HOP-62"
class_name = "n"

[[record]]
compound = "CN1C(=O)C(O)C[C@@H]1c1ccccc1 (some centres not stated)"
tgt = "HOP-62"
class_name = "n"

[[record]]
compound = "CCCN1C(=O)CC(C)N(Cc2ccccc2Cl)C1=S (configuration not stated)"
tgt = "HOP-62"
class_name = "n"

[[record]]
compound = "CC(C)(C)OC(=O)N[C@H]1CC(O)c2ccccc2N(CC(=O)O)C1=O (some centres not stated)"
tgt = "HOP-62"
class_name = "n"

[[record]]
compound = "CCCCc1ccc(-n2c(C)c(COC(=O)NC)c(COC(=O)NC)c2C)cc1"
tgt = "HOP-62"
class_name = "n"

[[record]]
compound = "O=C1C(Cl)N(c2ccc(Cl)cc2)C1c1c[nH]c2ccccc12 (configuration not stated)"
tgt = "HOP-62"
class_name = "n"

[[record]]
compound = "c1ccc([B-]2(c3ccccc3)NCCCO2)cc1"
tgt = "HOP-62"
class_name = "n"

[[record]]
compound = "O=C(Oc1cc(=O)c(OC(=O)c2ccccc2)co1)c1ccccc1"
tgt = "HOP-62"
class_name = "n"

[[record]]
compound = "CC(C)C1/C(=N/O)CC(c2ccccc2)N(N=O)C1c1ccccc1 (configuration not stated)"
tgt = "HOP-62"
class_name = "n"

[[record]]
compound = "CC(C)CC(=O)CC(O)C(Cl)(Cl)Cl (configuration not stated)"
tgt = "HOP-62"
class_name = "n"

[[record]]
compound = "COC(=O)C1CCC(C)CC1=O (configuration not stated)"
tgt = "HOP-62"
class_name = "n"

[[record]]
compound = "CCOC(=O)c1cn(CC)c2cc3c(cc2c1=O)CCS3(=O)=O"
tgt = "HOP-62"
class_name = "n"

[[record]]
compound = "O=C(O)C1CC2CC(=O)C1C2 (configuration not stated)"
tgt = "HOP-62"
class_name = "n"

[[record]]
compound = "CCC1=NC(N/N=C/c2ccco2)=N/C1=C\\c1ccccc1O"
tgt = "HOP-62"
class_name = "n"

[[record]]
compound = "CCCCCCCCCC[S+]([O-])CC(CO)NC(=O)/C=C/c1c(C)nc(O)nc1O (configuration not stated)"
tgt = "HOP-62"
class_name = "y"


Values compiled from ChEMBL document CHEMBL1201862.
